target: Histone deacetylase 5 (Homo sapiens, UniProt Q9UQL6); experiment: Inhibition of recombinant human C-terminal His-tagged HDAC5 (656 to 1122 residues) expressed in baculovirus-infected insect cells using Boc-Lys(TFA)-AMC as substrate after 60 mins by fluorimeter
Sequence (Q9UQL6 whole entry, the tested form may be a part): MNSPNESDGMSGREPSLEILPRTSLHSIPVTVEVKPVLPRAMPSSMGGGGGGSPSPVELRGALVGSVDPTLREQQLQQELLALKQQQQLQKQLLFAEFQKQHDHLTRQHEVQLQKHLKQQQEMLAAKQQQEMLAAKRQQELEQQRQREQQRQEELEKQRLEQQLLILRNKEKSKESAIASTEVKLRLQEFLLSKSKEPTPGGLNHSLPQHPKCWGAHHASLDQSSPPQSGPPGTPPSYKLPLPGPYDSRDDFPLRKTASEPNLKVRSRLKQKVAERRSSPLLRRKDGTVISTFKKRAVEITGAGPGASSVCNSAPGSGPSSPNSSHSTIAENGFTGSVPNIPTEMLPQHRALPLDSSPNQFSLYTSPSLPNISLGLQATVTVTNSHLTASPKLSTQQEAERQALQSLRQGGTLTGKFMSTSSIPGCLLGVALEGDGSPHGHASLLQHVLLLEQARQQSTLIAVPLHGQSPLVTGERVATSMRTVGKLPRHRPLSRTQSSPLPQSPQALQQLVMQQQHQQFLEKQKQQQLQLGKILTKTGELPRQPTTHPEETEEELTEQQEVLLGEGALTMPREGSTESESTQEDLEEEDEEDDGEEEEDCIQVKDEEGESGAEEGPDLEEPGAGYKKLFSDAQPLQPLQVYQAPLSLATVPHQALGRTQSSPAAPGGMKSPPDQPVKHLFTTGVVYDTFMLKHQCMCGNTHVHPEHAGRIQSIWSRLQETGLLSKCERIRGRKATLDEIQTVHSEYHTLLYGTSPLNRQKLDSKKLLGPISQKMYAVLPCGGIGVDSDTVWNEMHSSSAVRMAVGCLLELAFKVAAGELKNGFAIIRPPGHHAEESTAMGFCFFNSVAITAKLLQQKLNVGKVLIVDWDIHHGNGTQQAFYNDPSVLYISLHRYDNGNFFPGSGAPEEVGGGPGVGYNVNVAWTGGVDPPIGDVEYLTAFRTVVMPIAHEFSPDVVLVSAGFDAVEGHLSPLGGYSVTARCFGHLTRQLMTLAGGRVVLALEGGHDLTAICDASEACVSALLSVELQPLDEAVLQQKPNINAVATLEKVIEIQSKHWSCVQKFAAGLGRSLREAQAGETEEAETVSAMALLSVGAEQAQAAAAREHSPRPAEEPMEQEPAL

[
  {
    "molecule": "CN1C(=O)C2CN(Cc3c2c2ccccc2n3Cc2ccc(C(=O)NO)cc2)C1=O (stereo unspecified)",
    "Ki (µM)": 0.701
  }
]

* * *

molecular target: Histone deacetylase 2 (Homo sapiens, UniProt Q92769); test: Inhibition of full length recombinant human C-terminal GST-tagged HDAC2 expressed in baculovirus-infected insect cells using RHKK(Ac)AMC as substrate after 60 mins by fluorimeter
Sequence (Q92769 whole entry): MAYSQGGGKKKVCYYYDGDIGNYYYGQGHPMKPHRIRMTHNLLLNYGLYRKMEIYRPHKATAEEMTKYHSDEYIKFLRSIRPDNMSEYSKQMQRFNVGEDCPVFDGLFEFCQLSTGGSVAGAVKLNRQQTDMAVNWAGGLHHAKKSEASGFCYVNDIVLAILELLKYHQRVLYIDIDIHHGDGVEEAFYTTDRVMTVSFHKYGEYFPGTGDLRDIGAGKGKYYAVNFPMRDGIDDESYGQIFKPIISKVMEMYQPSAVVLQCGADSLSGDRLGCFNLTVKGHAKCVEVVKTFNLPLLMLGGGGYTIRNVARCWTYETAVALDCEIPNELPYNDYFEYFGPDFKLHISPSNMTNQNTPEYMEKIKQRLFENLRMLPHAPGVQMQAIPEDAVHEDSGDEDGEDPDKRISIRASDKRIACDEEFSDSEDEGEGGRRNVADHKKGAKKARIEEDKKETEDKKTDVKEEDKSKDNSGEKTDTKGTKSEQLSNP
pKi: −log10 of the molar value.
measuredParameter: pKi

[
  {
    "compound": "CN1C(=O)C2c3c(n(Cc4ccc(C(=O)NO)cc4)c4ccccc34)CCN2C1=O (stereo not given)",
    "observedResult": 6.00
  },
  {
    "compound": "COc1ccc2c(c1)c1c(n2Cc2ccc(C(=O)NO)cc2)CN2CC1C(=O)N(C)C2=O (stereo not given)",
    "observedResult": 6.51
  },
  {
    "compound": "O=C(NO)c1ccc(Cn2c3c(c4ccccc42)CCN2C(=O)CCCC32)cc1 (stereo not given)",
    "observedResult": 5.14
  },
  {
    "compound": "O=C(NO)c1ccc(Cn2c3c(c4ccccc42)C2CCN(C3)C2)cc1 (stereo not given)",
    "observedResult": 5.21
  },
  {
    "compound": "CN1C(=O)C2CN(Cc3c2c2ccccc2n3Cc2ccc(/C=C/C(=O)NO)cc2)C1=O (stereo not given)",
    "observedResult": 7.18
  }
]
